# targetOrSystem: T1, Human IL-17A (human, UniProt Q16552 24-155)
# T1 construct: Soluble IL-17A used at a fixed concentration (75 nM with tracer BCY13196) in the FP assay; also called CTLA-8
# T1 sequence (looked up): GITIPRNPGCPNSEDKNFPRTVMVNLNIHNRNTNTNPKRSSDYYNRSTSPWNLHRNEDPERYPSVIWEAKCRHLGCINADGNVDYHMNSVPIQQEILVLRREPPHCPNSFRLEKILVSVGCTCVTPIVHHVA
# assayExplanation: fluorescence polarization competition, 75 nM human IL-17A, 1 nM tracer BCY13196 as competitor, mean of n=3
*1 amine or outer side, *2 acyl side, *3 side chain or, on linkers, in order; H or OH if unused. Bridges are numbered along the chain shown (N, C = ends). Where no end group is shown, it is not given here. TCAN = N,N',N''-(nitrilotris(ethane-2,1-diyl))tris(2-chloroacetamide) scaffold, O=C(C[*:1])NCCN(CCNC(=O)C[*:2])CCNC(=O)C[*:3]
observationType: Ki (nM)
Please respond with the number in nM and leave the unit unwritten.

Field Ki (entry ACPQDLELCTFLFGDCA (linker 2-9-16 via TCAN, Synthetic bicyclic peptide cyclised on the TCAN scaffold) [BCY13061] ) reads 488
